- TGT: AsPC-1 HiBiT-KRASG12D (Homo sapiens, UniProt P01116, G12D)
- Construct: insert the HiBiT tag onto the N-terminus of one or more of the endogenous KRAS alleles; endogenous in cells; host or cells: AsPC-1 (ATCC CRL-1682), CRISPR-Cas9 knock-in clone, one tagged allele
- Sequence (P01116 1-188 isoform P01116-2 G12D): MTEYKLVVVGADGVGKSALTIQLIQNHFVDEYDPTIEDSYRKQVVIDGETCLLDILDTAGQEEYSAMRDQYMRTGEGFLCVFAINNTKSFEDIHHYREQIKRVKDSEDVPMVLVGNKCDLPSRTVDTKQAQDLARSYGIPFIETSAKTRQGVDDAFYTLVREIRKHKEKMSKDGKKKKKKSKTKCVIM
- TEST METHOD NOTES: HiBiT degradation assay (G12D), AsPC-1 HiBiT-KRASG12D cells
- Assay type: cell-based
- EXPERIMENTAL SETUP: AsPC-1 HiBiT-KRASG12D cells, 24 hours treatment, HiBiT luminescence
RECORDED ENDPOINT: DC50

Worked cases, answers included:
[
  {
    "CHEMICAL STRING": "CCc1cccc2cc(O)cc(-c3ncc4c(N5CC6CCC(C5)N6)nc(OC[C@]56CCCN5[C@H](COC(=O)N5CCN(c7cc([C@@H](C(=O)N8C[C@H](O)C[C@H]8C(=O)N[C@@H](C)c8ccc(-c9scnc9C)cc8)C(C)C)on7)[C@H](C)C5)CC6)nc4c3F)c12",
    "DC50": "< 600 nM"
  },
  {
    "CHEMICAL STRING": "C#Cc1c(F)ccc2cc(O)cc(-c3ncc4c(N5CC6CCC(C5)N6)nc(OCCN5CCC(F)(COc6cc([C@H](C(=O)N7C[C@H](O)C[C@H]7C(=O)N[C@@H](C)c7ccc(-c8scnc8C)cc7)C(C)C)on6)CC5)nc4c3F)c12",
    "DC50": "< 600 nM"
  },
  {
    "CHEMICAL STRING": "CCc1cccc2cc(O)cc(-c3ncc4c(N5CC6CCC(C5)N6)nc(OC[C@]56CCCN5[C@@H](COC(=O)N5CCN(c7cc([C@@H](C(=O)N8C[C@H](O)C[C@H]8C(=O)N[C@@H](C)c8ccc(-c9scnc9C)cc8)C(C)C)on7)CC5)CC6)nc4c3F)c12",
    "DC50": "1000 to 3000 nM"
  }
]

Alright, here's another compound for you.
QUERY: Look up DC50: `CCc1cccc2cc(O)cc(-c3ncc4c(N5CC6CCC(C5)N6)nc(OCCN5CCC(F)(CN6CCN(c7cc([C@H](C(=O)N8C[C@H](O)C[C@H]8C(=O)N[C@@H](C)c8ccc(-c9scnc9C)cc8)C(C)C)on7)[C@H](C)C6)CC5)nc4c3F)c12`
RESULT: < 600 nM

###

Task for the reader: assign each of the following molecules its reported DC50.
- TGT: AsPC-1 HiBiT-KRASG12D (Homo sapiens, UniProt P01116, G12D)
- Construct: insert the HiBiT tag onto the N-terminus of one or more of the endogenous KRAS alleles; endogenous in cells; host or cells: AsPC-1 (ATCC CRL-1682), CRISPR-Cas9 knock-in clone, one tagged allele
- TEST METHOD NOTES: HiBiT degradation assay (G12D), AsPC-1 HiBiT-KRASG12D cells
- Assay type: cell-based
- EXPERIMENTAL SETUP: AsPC-1 HiBiT-KRASG12D cells, 24 hours treatment, HiBiT luminescence

[
  {
    "MOLECULE": "CCc1cccc2cc(O)cc(-c3ncc4c(N5CC6CCC(C5)N6)nc(OCCN5CCC(CC6(F)CN(CC(=O)N[C@H](C(=O)N7C[C@H](O)C[C@H]7C(=O)N[C@@H](C)c7ccc(-c8scnc8C)cc7)C(C)(C)C)C6)CC5)nc4c3F)c12",
    "RECORDED ENDPOINT": "DC50",
    "EXPERIMENTAL RESULT": "< 0.6 µM"
  },
  {
    "MOLECULE": "CCc1cccc2cc(O)cc(-c3ncc4c(N5CC6CCC(C5)N6)nc(OC[C@@]56CCCN5[C@H](COC(=O)NCc5cc([C@@H](C(=O)N7C[C@H](O)C[C@H]7C(=O)N[C@@H](C)c7ccc(-c8scnc8C)cc7)C(C)C)on5)CC6)nc4c3F)c12",
    "RECORDED ENDPOINT": "DC50",
    "EXPERIMENTAL RESULT": "1 to 3 µM"
  },
  {
    "MOLECULE": "C#Cc1c(F)ccc2cc(O)cc(-c3ncc4c(N5CC6CCC(C5)N6)nc(OCCN5CCC(CC6CN(c7cc([C@H](C(=O)N8C[C@H](O)C[C@H]8C(=O)N[C@@H](C)c8ccc(-c9scnc9C)cc8)C(C)C)on7)C6)CC5)nc4c3F)c12 (single isomer, unassigned)",
    "RECORDED ENDPOINT": "DC50",
    "EXPERIMENTAL RESULT": "< 0.6 µM"
  },
  {
    "MOLECULE": "CCc1cccc2cc(O)cc(-c3ncc4c(N5CC6CCC(C5)N6)nc(OCCN5CCC(F)(CC6CCN(c7cc([C@@H](C(=O)N8C[C@H](O)C[C@H]8C(=O)N[C@@H](C)c8ccc(-c9scnc9C)cc8)C(C)C)on7)CC6)CC5)nc4c3F)c12",
    "RECORDED ENDPOINT": "DC50",
    "EXPERIMENTAL RESULT": "> 3 µM"
  },
  {
    "MOLECULE": "CCc1cccc2cc(O)cc(-c3ncc4c(N5CC6CCC(C5)N6)nc(OCCN5CCC(CN6CCN(c7cc([C@H](C(=O)N8C[C@H](O)C[C@H]8C(=O)N[C@@H](C)c8ccc(-c9ccnn9C)cc8)C(C)C)on7)CC6)CC5)nc4c3F)c12",
    "RECORDED ENDPOINT": "DC50",
    "EXPERIMENTAL RESULT": "< 0.6 µM"
  },
  {
    "MOLECULE": "CCc1cccc2cc(O)cc(-c3ncc4c(N5CC6CCC(C5)N6)nc(OC[C@]56CCCN5[C@H](COC(=O)N5CC(Oc7cc([C@@H](C(=O)N8C[C@H](O)C[C@H]8C(=O)N[C@@H](C)c8ccc(-c9scnc9C)cc8)C(C)C)on7)C5)CC6)nc4c3F)c12",
    "RECORDED ENDPOINT": "DC50",
    "EXPERIMENTAL RESULT": "< 0.6 µM"
  },
  {
    "MOLECULE": "CCc1cccc2cc(O)cc(-c3ncc4c(N5CC6CCC(C5)N6)nc(OC[C@]56CCCN5[C@H](COC(=O)N5CCC(Oc7cc([C@H](C(=O)N8C[C@H](O)C[C@H]8C(=O)N[C@@H](C)c8ccc(-c9scnc9C)cc8)C(C)C)on7)CC5)CC6)nc4c3F)c12",
    "RECORDED ENDPOINT": "DC50",
    "EXPERIMENTAL RESULT": "< 0.6 µM"
  },
  {
    "MOLECULE": "Cc1ncsc1-c1ccc([C@H](C)NC(=O)[C@@H]2C[C@@H](O)CN2C(=O)[C@@H](c2cc(OCC3CCN(CCOc4nc(N5CC6CCC(C5)N6)c5cnc(-c6cc(O)cc(Cl)c6C(F)(F)F)c(F)c5n4)CC3)no2)C(C)C)cc1",
    "RECORDED ENDPOINT": "DC50",
    "EXPERIMENTAL RESULT": "< 0.6 µM"
  },
  {
    "MOLECULE": "CCc1cccc2cc(O)cc(-c3ncc4c(N5CC6CCC(C5)N6)nc(OCCN5CCC(F)(CN6CCN(c7cc([C@@H](C(=O)N8C[C@H](O)C[C@H]8C(=O)N[C@@H](C)c8ccc(-c9scnc9C)cc8)C(C)C)on7)[C@H](C)C6)CC5)nc4c3F)c12",
    "RECORDED ENDPOINT": "DC50",
    "EXPERIMENTAL RESULT": "0.6 to 1 µM"
  },
  {
    "MOLECULE": "C#Cc1cccc2cc(O)cc(-c3ncc4c(N5CC6CCC(C5)N6)nc(OCCN5CCC6(CC5)CN(c5cc([C@H](C(=O)N7C[C@H](O)C[C@H]7C(=O)N[C@@H](C)c7ccc(-c8scnc8C)cc7)C(C)C)on5)C6)nc4c3F)c12",
    "RECORDED ENDPOINT": "DC50",
    "EXPERIMENTAL RESULT": "< 0.6 µM"
  }
]

I'm hoping you can list DC50 for every molecule here, please.
1. CCc1cccc2cc(O)cc(-c3ncc4c(N5CC6CCC(C5)N6)nc(OC[C@]56CCCN5[C@H](COC(=O)N5CCN(c7cc([C@@H](C(=O)N8C[C@H](O)C[C@H]8C(=O)N[C@@H](C)c8ccc(-c9scnc9C)cc8)C(C)C)on7)C[C@H]5C)CC6)nc4c3F)c12
2. CCc1cccc2cc(O)cc(-c3ncc4c(N5CC6CCC(C5)N6)nc(OCCN5CCC(CCC6CN(c7cc([C@H](C(=O)N8C[C@H](O)C[C@H]8C(=O)N[C@@H](C)c8ccc(-c9scnc9C)cc8)C(C)C)on7)C6)CC5)nc4c3F)c12 (single isomer, unassigned)
3. C#Cc1c(F)ccc2cc(O)cc(-c3ncc4c(N5CC6CCC(C5)N6)nc(OCCN5CCC6(CC5)CN(c5cc([C@H](C(=O)N7C[C@H](O)C[C@H]7C(=O)N[C@@H](C)c7ccc(-c8scnc8C)cc7)C(C)C)on5)C6)nc4c3F)c12
4. CCc1cccc2cc(O)cc(-c3ncc4c(N5CC6CCC(C5)N6)nc(OC[C@]56CCCN5[C@H](COC(=O)N5CCN(c7cc(C(C(=O)N8C[C@H](O)C[C@H]8C(=O)N[C@@H](C)c8ccc(-c9scnc9C)cc8)C(C)C)on7)CC5)CC6)nc4c3F)c12 (single isomer, unassigned)
5. C#Cc1c(F)ccc2cc(O)cc(-c3ncc4c(N5CC6CCC(C5)N6)nc(OCCN5CCC(CC6CCN(c7cc([C@@H](C(=O)N8C[C@H](O)C[C@H]8C(=O)N[C@@H](C)c8ccc(-c9scnc9C)cc8)C(C)C)on7)CC6)CC5)nc4c3F)c12 (single isomer, unassigned)

RESULT:
["0.6 to 1 µM", "< 0.6 µM", "< 0.6 µM", "< 0.6 µM", "< 0.6 µM"]
